SYSTEM_NAME: monoclonal antibody mAB 198
TEST_PROTOCOL: peptide microarray, fluorescence, cyclic peptide
Where no end group is shown, it is not given here.
QUANTITY_KIND: relative signal [%] (%)

Solved entries:
>  <BINDER>
NPADYGR (also: cyclic peptide, ring type and places not given here) [NPADYGR, cyclic mimotope]

>  <RESULT_UNITS>
%

>  <relative signal [%]>
19.5

$$$$
>  <BINDER>
RGNPADY (also: cyclic peptide, ring type and places not given here) [RGNPADY, cyclic mimotope]

>  <RESULT_UNITS>
%

>  <relative signal [%]>
23.8

$$$$
>  <BINDER>
RPNPADYGG (also: cyclic peptide, ring type and places not given here)

>  <RESULT_UNITS>
%

>  <relative signal [%]>
11.9

$$$$

[I] RSRWNPADY (also: cyclic peptide, ring type and places not given here)
[II] DVRLRINPADY (also: cyclic peptide, mode of cyclisation not given here)
**Q:** Hello, I am sorting some records. Could you say if I or II has the smaller relative signal [%] value? Please respond with the label that marks your chosen entry.
**A:** I
